The molecules listed here are annotated with their IC50.
Tested on: A/Minfang/151/2000 (wild-type H3N2)
measurement.description: microbe, parasite or virus in culture
Format: cell-based
condition.details: Influenza A virus, H3N2, MDCK, read-out: IC50, CPE reduction, A/Minfang/151/2000 (H3N2), Drug administration after virus inoculation

Asked: Determine from records and report IC50 for O=c1c(O)c(-c2ccc(O)c(O)c2)oc2cc(O)cc(O)c12 [Quercetin]
Given back: > 100 µM

Asked: Determine from records and report IC50 for O=C1c2ccccc2-n2c1nc1ccccc1c2=O [Tryptanthrin]
Given back: > 100 µM

Asked: Determine from records and report IC50 for CCOC(=O)C1=C[C@@H](OC(CC)CC)[C@H](NC(C)=O)[C@@H](N)C1 [Oseltamivir, oseltamivir phosphate, reference compound]
Given back: 77.9 µM

Asked: Determine from records and report IC50 for O=C1Nc2ccccc2/C1=C1/Nc2ccccc2C1=O [Indirubin]
Given back: > 100 µM

###

The compounds listed here are annotated with their IC50.
measured.target: neuraminidase (NA) of A/PR/8/34 (H1N1) (Influenza A virus, UniProt P03468)
Sequence (P03468 whole entry, looked up): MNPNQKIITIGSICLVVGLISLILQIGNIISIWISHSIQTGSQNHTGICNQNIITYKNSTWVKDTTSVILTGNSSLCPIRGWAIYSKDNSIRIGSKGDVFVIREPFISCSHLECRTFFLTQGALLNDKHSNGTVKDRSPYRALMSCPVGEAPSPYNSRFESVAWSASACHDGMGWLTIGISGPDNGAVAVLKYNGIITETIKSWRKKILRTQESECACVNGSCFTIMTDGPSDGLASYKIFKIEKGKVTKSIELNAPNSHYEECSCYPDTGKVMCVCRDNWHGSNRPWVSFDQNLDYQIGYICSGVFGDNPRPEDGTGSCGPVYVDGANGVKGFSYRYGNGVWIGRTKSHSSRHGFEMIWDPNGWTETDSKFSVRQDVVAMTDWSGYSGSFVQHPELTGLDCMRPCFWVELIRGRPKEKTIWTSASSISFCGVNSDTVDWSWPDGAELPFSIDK
measurement.description: biochemical
condition.details: IC50, NA inhibition test, A/PR/8/34 (H1N1)
Form field: result (number plus unit)

{"compound": "O=C(/C=C/c1ccc(O)c(O)c1)O[C@@H]1C[C@](O)(C(=O)O)C[C@@H](O)[C@H]1O [Chlorogenic acid]", "IC50": "64.6 µM"}

// moving on: another record for IC50
Asked: Determine from records and report IC50 for O=c1cc(-c2ccc(O)c(O)c2)oc2c([C@@H]3O[C@H](CO)[C@@H](O)[C@H](O)[C@H]3O)c(O)cc(O)c12 [Orientin]
Given back: 53.7 µM

###

Test system: A/Minfang/151/2000 (wild-type H3N2)
measurement.description: microbe, parasite or virus in culture
Type: cell-based
condition.details: Influenza A virus, H3N2, MDCK, read-out: IC50, CPE reduction, A/Minfang/151/2000 (H3N2), Simultaneous action of virus and drug
The compounds listed here are annotated with their pIC50.
Scale for pIC50: -log10 of concentration given in mol/L; no unit attached.

{"compound": "O=c1cc(-c2ccc(O)cc2)oc2cc(O)cc(O)c12", "measured": 4.80}
{"compound": "O=c1c(O)c(-c2ccc(O)c(O)c2)oc2cc(O)cc(O)c12", "measured": 4.74}
{"compound": "CCOC(=O)C1=C[C@@H](OC(CC)CC)[C@H](NC(C)=O)[C@@H](N)C1 [Oseltamivir, oseltamivir phosphate, reference compound]", "measured": 5.07}

Asked: Determine from records and report pIC50 for O=C1c2ccccc2-n2c1nc1ccccc1c2=O
Given back: 4.50

Asked: Determine from records and report pIC50 for NC(=O)c1ncn([C@@H]2O[C@H](CO)[C@@H](O)[C@H]2O)n1 [Ribavirin, ribavirin, reference compound]
Given back: 4.66

Asked: Determine from records and report pIC50 for COc1ccc(-c2cc(=O)c3c(O)cc(O)cc3o2)cc1
Given back: 4.69

Asked: Determine from records and report pIC50 for Cc1cc(O)c2c(c1)C(=O)c1cc(O)cc(O)c1C2=O
Given back: 4.25

###

measured.target: neuraminidase (NA) of A/PR/8/34 (H1N1) (Influenza A virus)
measurement.description: biochemical
pIC50: −log10 of the molar value.
endpoint.label: pIC50

Asked: Determine from records and report pIC50 for C=C[C@@H]1CNC(=S)O1 [Epigoitrin]
Given back: < 4.00

Origin of the recorded values: paper PMC7026480
